molecular target: CDK4/cyclin D1 (Homo sapiens (Human), UniProt P11802); experiment: CDK4/Cyclin D1 enzymatic activity assay (Lance TR-FRET); format: biochemical; conditions: Table 2; 3 μM ATP; read-out: CDK4
Sequence (P11802 whole entry): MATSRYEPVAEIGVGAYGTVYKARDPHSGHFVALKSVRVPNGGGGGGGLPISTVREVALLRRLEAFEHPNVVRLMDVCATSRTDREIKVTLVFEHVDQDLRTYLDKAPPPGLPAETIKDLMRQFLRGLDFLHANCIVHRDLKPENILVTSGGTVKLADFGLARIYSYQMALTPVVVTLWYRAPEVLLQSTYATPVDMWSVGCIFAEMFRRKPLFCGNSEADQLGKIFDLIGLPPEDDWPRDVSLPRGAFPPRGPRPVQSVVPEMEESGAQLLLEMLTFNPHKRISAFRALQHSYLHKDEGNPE
Sequence (P24385 whole entry partner): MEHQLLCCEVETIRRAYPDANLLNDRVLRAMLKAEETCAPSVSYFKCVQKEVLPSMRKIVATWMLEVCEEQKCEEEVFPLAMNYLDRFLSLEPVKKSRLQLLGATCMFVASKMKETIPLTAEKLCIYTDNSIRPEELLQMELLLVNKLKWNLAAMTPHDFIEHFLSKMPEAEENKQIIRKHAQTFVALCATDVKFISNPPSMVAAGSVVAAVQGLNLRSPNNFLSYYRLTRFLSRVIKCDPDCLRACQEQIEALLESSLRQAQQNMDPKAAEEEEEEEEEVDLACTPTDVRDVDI
endpoint: IC50

Incoming: Suppose we examine the compound `C[C@@H]1CN(Cc2ccc(Nc3ncc4cc(C(=O)N(C)C)n(C5CCCC5)c4n3)nc2)C[C@H](C)N1` ; what IC50 value has been reported?
Outgoing: 10 to 100 nM

Incoming: Suppose we examine the compound `CN(C)C(=O)c1cc2cnc(Nc3cnc(N4CCN(CCO)CC4)cn3)nc2n1C1CCCC1` ; what IC50 value has been reported?
Outgoing: 100 to 1000 nM

Incoming: Suppose we examine the compound `CC(C)CN1CCN(c2ccc(Nc3ncc4cc(C(=O)N(C)C)n(C5CCCC5)c4n3)nc2)CC1` ; what IC50 value has been reported?
Outgoing: 1 to 10 nM

Incoming: Suppose we examine the compound `CC(C)N1CCN(c2ccc(Nc3ncc4cc(C(=O)N(C)C)n(C5CCCC5)c4n3)nc2)CC1` ; what IC50 value has been reported?
Outgoing: 1 to 10 nM

Incoming: Suppose we examine the compound `CN(C)C(=O)c1cc2cnc(Nc3ccc(N4CCN(C(=O)N5CCCCC5)CC4)cn3)nc2n1C1CCCC1` ; what IC50 value has been reported?
Outgoing: 10 to 100 nM

Incoming: Suppose we examine the compound `CN(C)C(=O)c1cc2cnc(Nc3ccc(N4CCN(C(=O)C5CC5)CC4)cn3)nc2n1C1CCCC1` ; what IC50 value has been reported?
Outgoing: 10 to 100 nM

Incoming: Suppose we examine the compound `CN(C)C(=O)c1cc2cnc(Nc3ccc(C(=O)N4CCC(N(C)C)CC4)cn3)nc2n1C1CCCC1` ; what IC50 value has been reported?
Outgoing: 10 to 100 nM

Incoming: Suppose we examine the compound `COCCN1CCN(c2ccc(Nc3ncc4cc(C(=O)N(C)C)n(C5CCCC5)c4n3)nc2)CC1` ; what IC50 value has been reported?
Outgoing: 10 to 100 nM

Incoming: Suppose we examine the compound `CNC(=O)c1cc2cnc(Nc3ccc(N4CCN(C(C)C)CC4)cn3)nc2n1C1CCCC1` ; what IC50 value has been reported?
Outgoing: 10 to 100 nM

Incoming: Suppose we examine the compound `CN(C)C(=O)c1cc2cnc(Nc3ccc(C(=O)N4CCN(CCO)CC4)cn3)nc2n1C1CCCC1` ; what IC50 value has been reported?
Outgoing: 10 to 100 nM

Incoming: Suppose we examine the compound `CN(C)C(=O)c1cc2cnc(Nc3ccc(N4CCN(C(=O)N5CCCC5)CC4)cn3)nc2n1C1CCCC1` ; what IC50 value has been reported?
Outgoing: 10 to 100 nM

Incoming: Suppose we examine the compound `COCCN1CCN(Cc2ccc(Nc3ncc4cc(C(=O)N(C)C)n(C5CCCC5)c4n3)nc2)CC1` ; what IC50 value has been reported?
Outgoing: 10 to 100 nM
